The reported numbers originate from the supplement of paper PMC12855868.

Exercise: for every item that follows, state its recorded scaled log2 fold change.
B1: library; numbered along this chain (parent)
chain: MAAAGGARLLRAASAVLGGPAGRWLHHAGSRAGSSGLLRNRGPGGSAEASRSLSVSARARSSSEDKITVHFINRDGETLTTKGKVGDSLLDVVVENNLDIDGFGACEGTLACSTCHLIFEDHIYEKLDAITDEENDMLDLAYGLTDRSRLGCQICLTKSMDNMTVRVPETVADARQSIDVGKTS

# Variants of: B1
# assayDetails: scaled log2 fold change in cell abundance, elesclomol vs control (0 = silent mean, 1 = nonsense mean) (scaled log2 ratio); higher = higher viability under elesclomol (loss of FDX1 cuproptosis function);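 further: variant abundance is its share of total variant reads in each endpoint sample, from next-generation sequencing of the integrated ORF PCR-amplified out of genomic DNA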
# protocolConditions: with ABC1 FDX1 KO; elesclomol 5 nM; glucose 10 mM; 14 days
Numbers only.

Check out these entries, answers already filled in.
variantDescriptor: A15S
reportedResult: 0.137
--
variantDescriptor: S148P
reportedResult: 0.532
--
variantDescriptor: I72R
reportedResult: -0.783
--
variantDescriptor: T183V
reportedResult: 0.00691
--
variantDescriptor: G33Q
reportedResult: -0.173

Fill in scaled log2 fold change for each of the 3 variants listed.
1. R39F
2. S159M
3. N135C

0.0891
-0.149
0.138

Hello, I would appreciate it if you could give scaled log2 fold change for each entry below.
1. Y124G
2. F71M

1: -0.0904; 2: 0.0919

For every listed record, write down its scaled log2 fold change.
1. L17K
2. V180T
3. R31T
4. C115I
5. L138V
6. L127M
7. G83I
8. G5S

-0.392
0.143
-0.552
1.04
-0.213
0.152
0.557
0.203

Provide scaled log2 fold change for all items below, preserving their order.
1. G86L
2. D65W
3. C155R
4. S35V

1. 0.171
2. 0.185
3. -0.248
4. 0.123
